Target Of Assay: human recombinant Btk (Homo sapiens, UniProt Q06187)
Sequence (Q06187 whole entry): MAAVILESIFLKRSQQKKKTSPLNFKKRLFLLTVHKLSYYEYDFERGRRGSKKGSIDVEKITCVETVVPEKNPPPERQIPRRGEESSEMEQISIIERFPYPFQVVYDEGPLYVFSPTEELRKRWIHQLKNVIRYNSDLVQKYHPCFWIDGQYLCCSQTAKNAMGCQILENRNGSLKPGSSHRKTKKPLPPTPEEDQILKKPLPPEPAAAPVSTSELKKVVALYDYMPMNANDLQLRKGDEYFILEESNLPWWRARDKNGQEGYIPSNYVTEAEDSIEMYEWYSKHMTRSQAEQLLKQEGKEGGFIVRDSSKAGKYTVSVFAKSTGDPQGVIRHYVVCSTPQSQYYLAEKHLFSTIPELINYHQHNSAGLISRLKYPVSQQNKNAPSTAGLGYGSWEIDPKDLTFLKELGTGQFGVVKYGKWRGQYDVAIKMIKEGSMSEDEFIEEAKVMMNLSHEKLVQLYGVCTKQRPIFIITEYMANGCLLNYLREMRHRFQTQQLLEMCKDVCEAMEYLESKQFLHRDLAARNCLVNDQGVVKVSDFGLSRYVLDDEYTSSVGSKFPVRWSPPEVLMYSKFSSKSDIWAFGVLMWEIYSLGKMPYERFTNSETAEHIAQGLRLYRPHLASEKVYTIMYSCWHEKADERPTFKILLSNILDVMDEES
Test: Human Recombinant Btk Enzyme Assay
Condition: human recombinant Btk 1 nM, ATP 20 μM, 60 min at room temperature; read-out: IC50 for Inhibition of Btk
Counter-ions that a name gives are not always drawn.
Observed Property: IC50 (nM)

CN1CCN(C(=O)c2ccc3[nH]c4c(C(N)=O)ccc(-c5ccccc5F)c4c3c2)CC1    16
Cc1c(NS(=O)(=O)CCCCl)cccc1-c1ccc(C(N)=O)c2[nH]c3cc(C(=O)N4CCN(C)CC4)ccc3c12    17
Cc1c(NC(=O)c2ncccc2O)cccc1-c1ccc(C(N)=O)c2[nH]c3cc(C(=O)N4CCN(C)CC4)ccc3c12 [Example 5-19, TFA salt]    17
CCOc1ccc(F)c(-c2ccc(C(N)=O)c3[nH]c4cc(C(=O)N5CCN(C)CC5)ccc4c23)c1    16
